# target-entity: 3',5'-cyclic-AMP phosphodiesterase 4D (Homo sapiens, UniProt Q08499); also: assay procedure not described here
# Sequence (Q08499 whole entry): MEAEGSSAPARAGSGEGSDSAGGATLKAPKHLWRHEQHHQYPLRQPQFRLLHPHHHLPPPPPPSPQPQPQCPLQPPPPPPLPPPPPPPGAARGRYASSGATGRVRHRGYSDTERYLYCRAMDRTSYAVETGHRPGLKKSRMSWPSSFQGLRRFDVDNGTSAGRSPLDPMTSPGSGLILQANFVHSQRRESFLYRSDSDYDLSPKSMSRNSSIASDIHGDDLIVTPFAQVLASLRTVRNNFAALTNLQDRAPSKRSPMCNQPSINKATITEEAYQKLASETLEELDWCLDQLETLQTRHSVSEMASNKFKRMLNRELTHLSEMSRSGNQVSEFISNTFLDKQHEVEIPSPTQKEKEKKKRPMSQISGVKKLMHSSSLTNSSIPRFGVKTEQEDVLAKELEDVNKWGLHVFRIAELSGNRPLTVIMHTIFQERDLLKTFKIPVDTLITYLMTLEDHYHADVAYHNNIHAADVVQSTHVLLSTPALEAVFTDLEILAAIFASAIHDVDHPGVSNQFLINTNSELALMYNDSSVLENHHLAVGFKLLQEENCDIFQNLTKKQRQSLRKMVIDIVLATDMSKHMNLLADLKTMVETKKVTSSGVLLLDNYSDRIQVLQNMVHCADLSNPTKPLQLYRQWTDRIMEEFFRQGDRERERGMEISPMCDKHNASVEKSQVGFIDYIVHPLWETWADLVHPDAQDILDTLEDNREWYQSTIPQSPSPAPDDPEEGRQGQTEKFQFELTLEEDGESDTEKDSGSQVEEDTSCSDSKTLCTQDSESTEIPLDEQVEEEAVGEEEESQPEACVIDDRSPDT
# Assay type: functional
measured-parameter: AC50

Solved entries (count: 4):
compound	measured-parameter	result
CN(C)c1cc(NC(=O)CNC(C)(C)C)c(O)c2c1C[C@H]1C[C@H]3[C@H](N(C)C)C(O)=C(C(N)=O)C(=O)[C@@]3(O)C(O)=C1C2=O [TIGECYCLINE]	AC50	> 30 µM
Cc1cc2nc3c(=O)[nH]c(=O)nc-3n(C[C@H](O)[C@H](O)[C@H](O)COP(=O)(O)O)c2cc1C [RIBOFLAVIN 5'-PHOSPHATE]	AC50	> 30 µM
CC[C@H]1OC(=O)[C@H](C)[C@@H](O[C@H]2C[C@@](C)(OC)[C@@H](O)[C@H](C)O2)[C@H](C)[C@@H](O[C@@H]2O[C@H](C)C[C@H](N(C)C)[C@H]2O)[C@](C)(OC)C[C@@H](C)C(=O)[C@H](C)[C@@H](O)[C@]1(C)O [CLARITHROMYCIN]	AC50	> 30 µM
CCC(C)(Oc1ccc(C2(c3ccc(OC(C)(CC)C(=O)O)cc3)CCCCC2)cc1)C(=O)O (stereo unspecified) [CLINOFIBRATE]	AC50	> 30 µM

Request: Which AC50 reading was recorded for the compound CC(=N)N1CC[C@H](SC2=C(C(=O)O)N3C(=O)[C@H]([C@@H](C)O)[C@H]3C2)C1 ?
Result: > 300 µM

Request: Look up AC50: COc1cc2nccc(Oc3ccc(NC(=O)Nc4cc(C)on4)c(Cl)c3)c2cc1OC [TIVOZANIB]
Result: 27 µM

* * *

# target-entity: D(1A) dopamine receptor (Homo sapiens, UniProt P21728); also: assay procedure not described here
# Sequence (P21728 whole entry): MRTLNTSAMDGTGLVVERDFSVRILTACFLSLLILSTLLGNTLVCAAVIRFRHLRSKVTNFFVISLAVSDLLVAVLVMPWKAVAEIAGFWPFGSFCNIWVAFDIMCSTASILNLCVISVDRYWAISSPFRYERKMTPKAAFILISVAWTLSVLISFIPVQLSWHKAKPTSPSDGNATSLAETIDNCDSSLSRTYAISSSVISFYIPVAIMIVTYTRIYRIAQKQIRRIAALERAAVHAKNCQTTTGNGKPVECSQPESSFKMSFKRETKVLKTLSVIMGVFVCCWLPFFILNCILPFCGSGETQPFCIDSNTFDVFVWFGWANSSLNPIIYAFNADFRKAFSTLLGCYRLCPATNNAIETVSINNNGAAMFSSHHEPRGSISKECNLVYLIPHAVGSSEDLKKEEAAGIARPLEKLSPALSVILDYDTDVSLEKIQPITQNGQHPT
# Type: functional, cell-based
measured-parameter: AC50

// below: answered compounds
> print(dat)
                                   compound   result
1              CCCN(CCC)CCc1cccc2c1CC(=O)N2  > 30 µM
2  O=C(CCCN1CCC(n2c(O)nc3ccccc32)CC1)c1ccc(F)cc1   7.5 µM

Request: Quick check: AC50 on D(1A) dopamine receptor (Homo sapiens, UniProt P21728), item CC(C)C[C@H](CN)CC(=O)O ?
Result: > 30 µM

Request: What value of AC50 on D(1A) dopamine receptor (Homo sapiens, UniProt P21728) does CC(C)(C)NCC(O)c1cc(Cl)c(N)c(Cl)c1 (stereo not given) have?
Result: > 30 µM

Request: Recall the recorded AC50 for C[C@H]1Oc2cc(cnc2N)-c2c(nn(C)c2C#N)CN(C)C(=O)c2ccc(F)cc21 with D(1A) dopamine receptor (Homo sapiens, UniProt P21728) and state it.
Result: > 30 µM

* * *

# target-entity: Growth hormone secretagogue receptor type 1 (Homo sapiens, UniProt Q92847); also: assay procedure not described here
# Sequence (Q92847 whole entry): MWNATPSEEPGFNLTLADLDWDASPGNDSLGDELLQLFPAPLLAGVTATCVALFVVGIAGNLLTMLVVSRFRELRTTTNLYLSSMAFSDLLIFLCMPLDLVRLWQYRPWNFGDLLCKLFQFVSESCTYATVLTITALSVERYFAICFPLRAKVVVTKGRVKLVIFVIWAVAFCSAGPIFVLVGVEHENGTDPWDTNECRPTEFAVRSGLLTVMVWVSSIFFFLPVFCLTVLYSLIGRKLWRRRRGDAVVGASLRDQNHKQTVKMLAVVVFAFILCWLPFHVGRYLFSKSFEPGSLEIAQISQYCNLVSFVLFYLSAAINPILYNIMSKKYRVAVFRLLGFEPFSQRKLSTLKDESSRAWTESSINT
measured-parameter: AC50

> print(dat)
                                   molecule   result
1  CN(c1nccc(=O)[nH]1)C1CCN(c2nc3ccccc3n2Cc2ccc(F)cc2)CC1  > 30 µM
2  CCOC(=O)Nc1ccc2c(c1)N(C(=O)CCN1CCOCC1)c1ccccc1S2  > 30 µM
3  [H]/N=C(\N/C(=N/[H])NCCCCCCNC(=N)NC(=N)Nc1ccc(Cl)cc1)Nc1ccc(Cl)cc1     1 µM

Field: next compound
Request: Sample CNC(=O)Oc1ccc2c(c1)[C@]1(C)CCN(C)[C@@H]1N2C — what was its AC50?
Result: > 30 µM
